B1: TPR t1 (parent)
chain: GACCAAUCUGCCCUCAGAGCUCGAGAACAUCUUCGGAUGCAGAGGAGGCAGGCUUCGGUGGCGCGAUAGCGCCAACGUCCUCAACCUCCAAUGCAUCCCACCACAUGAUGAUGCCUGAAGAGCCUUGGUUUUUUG

Variants of: B1
Test: polymerase ribozyme fitness, log enrichment relative to wild type (log ratio); higher = more active; in vitro selection for triplet polymerase activity
Can you tell me polymerase ribozyme fitness (log ratio) for the items I'm about to list?
Answers are plain numbers.

Examples with answers:
GACCAAUCUGCCCUCAGAGCUCGAGAACAUCUUCGGAUGCAGAGGAGGCAGGCUUCGGUGACGCGAUAGCGCCAACGUCCUCAACCUCCAAUGCAUCCCACCACAUGAUGCUGCCUGAAGAGCCUUGGUUUUUUG [G61A A111C] | -0.072
GACCAAUCUGCCCUCAGAGCUCGAGAACAUCUUCGGAUGUAGAGGAGGCAGGCUUCGGUGGCGUGAUAGCGCGAACGUCCUCAACCUCCAAUGCAUCCCACCACAUGAUGAUGCCUGAAGAACCUUGGUUUUUUG [C40U C64U C73G G122A] | -5.15
GACCAAUCUGCCCUCAGAGCUCGAGAACAUCUUCGGAUUCAGAGGAGGGAGGCUUCGGUGGCGUGAUAGCGCCAACGUCCUCAACCUCCAAUGCAUCCCACCACAUGAUGAUGCCUCAAGAGCCUUGGUUUUUUG [G39U C49G C64U G117C] | -4.42

// for each variant below, give its polymerase ribozyme fitness (log ratio)
1. GACCAGUCUGCCCUCAGCGCUCGAGAACAUCUUCGGAUGCAGAGGAGGCAGGCCUCGGUGGCGCGAUAGCGCCAACGUCCUCAACCUCCAAUGCAUCCCACCACAUGAUGAUGCCUGAAGAGCCUUGGUUUUUUG [A6G A18C U54C]
2. GACCAAUCGGCCCUCAGAGCUCGAGAACAUCUUCGGAUGCAGAGGAGGCAGGCUUCGGUGGCGCGAUAGCGCCAACGUCCUCAACCUCCAAGGCAUCCCACCACAUGAUGAUGCCUGAAGAGCCUUGGUUUUUUG [U9G U92G]
3. GACCAAUCUGCCCUAAGAGCUCGAGAACAUCUUCGGAUGCAGAGGAGGCAGGCUUCGGUGUCGCGAUAGCGCCAACGUCCUCAACCUCCAAUGCAUCCCACCACCUGAUGAUGCCUGAAGAGCCUUGGUUUUUUG [C15A G61U A105C]
4. GACCAAUCUGACCUCAGAGCUCGAGAACAUCUUCGGAUGCAGAGGUGGCAGGCUUCGGUGGCGCGAUAGCGCCAACGUCCUCAACCUCCAAUACAUCCCACCACAUGAUGAUGCCUGAAGAGCCUUGGUUUUUUG [C11A A46U G93A]

1: -2.19; 2: -1.92; 3: -4.93; 4: -3.04

Hi team, please reply with polymerase ribozyme fitness (log ratio) for each item in this list.
1. GACCAAUCUGCCCUCAGAGCUCGAGAUCAUCUUCGGAUGCAGAGGAGGCAGGCUUCGGUGGCGCGAUAGUGCCAACGUCCUCAACCUCCAAUGCAUCCCACCACAUGAUGAUGCCUGAAGAACCUUGGUUUUUUG [A27U C70U G122A]
2. GAGCAAUCUGCCCUCAGAGCUCGAGAACAUCUUCGGAUGCAGAGGAGGCAGGCUUCGGUGGCGCGAUAGCGCCAACGUCCUCAACCUCCAAUGCAUCCCACUACAUGAUGAUGCCUGAAGAGCAUUGGUUUUUUG [C3G C102U C124A]
3. GACCAAUCUGCACUCAGAGAUCGAGAACAUCUUCGGAUGCAGAGGAGGCAGGCUUCGGUGGCGAGAUAGCGCCAACGUCCUCAACCUUCAAUGCAUCCCACCACAUGAUGAUGCCCGAAGAGCCUUGGUUUUUUG [C12A C20A C64A C88U U116C]
4. GUCCAAUCUGCCCUCAGAGCUCGAGAACAUCUUCGGAUGCAGAGGAGGCAGGCUUCGGUGGCGCGAUAACGCCAACGUCCUCAACCUCCAAUGCAUCCCACCACAUGAUGAUGCCUGAAGAGCCUUGGUUUUUUG [A2U G69A]

1. -3.96
2. -2.89
3. -6.74
4. -4.39

Batch request: polymerase ribozyme fitness (log ratio) for each of the following variants.
1. GACCAAUCUGCCCUCAGAGCUCGAGAACAUCUUCGGAUGCAGAGGAGGCAGGCUUCGGUGGCGCGAUAGCGCCAACGGCCUCAACCUCCAAUGCAUCCCACCACAUGAUGAUUCCUGAAGAGCCUUGGUUUUUUG [U78G G113U]
2. GACGAAUCUGCCCUUAGAGCUCGAGAACAUCUUCGGAUGCAGAGGAGGCAGGCUUCGGUGGCGCGAUAGCGCCAACGUCCUCAACCUCCAAUGCAACCCACCACAUGAUGAUGCCUGAAGAGCCUUCGUUUUUUG [C4G C15U U96A G127C]
3. GACCAAUCUGGCCUCAGAGCUCGAGAACAUCUUCGGUUGCAGAGGAGGCAGGCUUCGGUGGCGCGAUAGAGCCAACGUCCUCCACCUCCAAUGCAUCCCACCACAUGAUGAUGCCUGAAGCGCCUUGGUUUUUUG [C11G A37U C70A A83C A121C]
4. GACCAAUCUGCCCUCAGAGUUCAAGAACAUCUUCGGAUGCAGAGGAGGCAGGCUUCGGUGACGCGAUAGCGCCAACGUCCUCAACCUCCAAUGCAUCCCACCACAUGAUGAAACCUGAAGACCCUUGGUCUUUUG [C20U G23A G61A U112A G113A G122C U130C]
5. GACCAAUCUGCCCUCAGAACUCGAGAACAUCUUCGGAUGCAGAUGAGGCAGGCUUCGGUGGCGCGAUAGCGCCAACGUCCUCAACCUCCAAUGCAUCCCACCACAUGAUGAUGCCUGAAGAGCAUUGGUUUUUUG [G19A G44U C124A]
6. GACCAAUCUGCCAUCAGAGCUCGAGAACGUCUUCGGAUGCAGAGGAGGCAGGCUUCGGUGGCGCGAUAGCGCGAACGUUCUCAACCUCCAAUGCAUCCCACCACAUGAUGAUGCCUGAAGAGCCGUGGUUUUUUG [C13A A29G C73G C79U U125G]
7. GACCAAUCUGUCAUCAGAGCUCGAGAACAUCUUCGGAUGCAGAGGAGGCAGGCUUCGGUGGCGCGAUAGCGCCAACGUCCUCAACCUCUAAUGCAUCCCACCACAUGAUGAUGCCUGAAGAGCCUUGGUUUUUUG [C11U C13A C89U]
8. GACCAAUCUGCCCUCAGAGCUCGAGAACAUCUUCGGAUGCAGACGAGGCAGGCUUCGGCGGCGCGAUAGCGCCAACGUCCUCAACCUCCAAUGCAUCCCACCACAUGAUGAUGCCUGAAGAGCCUUGGUUUUUUG [G44C U59C]

1. -3.89
2. -2.26
3. 0.293
4. -6.32
5. -1.74
6. -4.63
7. -2.3
8. -1.09

For each of the items listed, what is its polymerase ribozyme fitness (log ratio)?
1. GACCAAUCUGCCCUCAGAGCUCGAGAACAUCUUCGGAUGCAGAGGAGGAAGGCAUUGGUGGCGCGAUAGCGCCAACGUCCUCAACCUCCAAUGCAUCCCACCACAUGAUGACGCCUGAAGAGCCUUGGUUUUUUG [C49A U54A C56U U112C]
2. GACCAAUCUGCCCUCAGAGCUCGAGAACAUCUUCGGAUGCAGAGGAGGCAGGCUUCGGUGGCGCGAUAGCGCCAACGUCCUCAACCUCCAAUGCAUCCAACCACAUGAUGAUGCCUGAAGAGCUUUGGUUUUUUG [C99A C124U]
3. GACCAAUCUGCCCUCAGAGCUCGAGAACAUCUUCGGAAGCAAAGGAGGCAGGCUUCGGUGGCGCGAUAGCGCCAACGUCCUCAACCUCCAAUGCAUCCCACCACAUGAUGAUGCCUGAAGAGCCUUGGUUUUUUG [U38A G42A]
4. GACCAAUAUGCCCUCAGAACUCGAGAACAUCUUCGGAUGCAGAGGAGGCAGGCUUCGGUGGCGCGAUAGCGCCAACGUCCUCAACCCCCACUGCAUCCCACCACAUGAUGAUCCCUGAAGAGCCUUCGUUUUUUG [C8A G19A U87C A91C G113C G127C]

1: 1.59; 2: -4.66; 3: -2.86; 4: -2.18
